Measured values drawn from PubChem BioAssay (NCATS) for this set.

Molecular target: Cellular tumor antigen p53 (Homo sapiens)
Test: Primary qHTS for small molecule compounds that upregulate eGFP-tagged delta133p53alpha (in N-terminal) cells. (AID 2060322); further: nearly all actives have a fitted effect of over 75% in size; further: potency means the concentration at half of the fitted maximal effect;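 on activation: cells pre-induced with doxycycline then dosed without doxycycline; 0% = DMSO vehicle and 100% = reference activator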
Settings: NCI-H358 eGFP-delta133p53alpha fluorescence, 24 h
Text: Assay Development and Screening Technology National Center for Advancing Translational Sciences (NCATS), National Institute of Health (NIH), Rockville, Maryland Cellular senescence (CS) is one of the hallmarks of aging and age-related diseases. […] Here we report the development and validation of a cell-based quantitative high throughput screening (qHTS) assay in 1,536-well format. […]
Records with an inconclusive call do not appear. Calls of active or inactive are those of the source. The call rests on the fitted dose curve; in most records, active means well fitted activation curve with a large enough effect; inconclusive means small, poorly fitted or top-dose-only effect; inactive means no such curve, though single readings can be large or run the other way.

molecule	Potency
C=C1C(=O)[C@@]23C(CC[C@@H]1[C@H]2O)[C@@]12CO[C@]3(O)[C@@H](O)[C@@H]1C(C)(C)CC[C@@H]2O (stereo partly drawn)	27.3 µM (active)
COc1ccccc1-c1cc(Nc2cccc(CS(N)(=O)=O)c2)ncn1	8.49 µM (active)
Cc1c(C(=O)NCCCO)cnn1-c1nc(-c2cccc(C(F)(F)F)c2)cs1	9.53 µM (active)
COCCNCc1ccc(-c2cc3nccc(Oc4ccc(NC(=O)C5(C(=O)Nc6ccc(F)cc6)CC5)cc4F)c3s2)nc1	19 µM (active)
CN(c1ncccc1CNc1nc(Nc2ccc3c(c2)CC(=O)N3)ncc1C(F)(F)F)S(C)(=O)=O	24.3 µM (active)
COC(=O)CC1OC(C)C2=C(O)c3c(O)cccc3C(=O)C23OC13 (stereo not drawn)	5.88 µM (active)
C=C1C(=O)O[C@@H]2C[C@@]3(C)C[C@@H](O)C[C@H](C)C3=C[C@H]12	23.9 µM (active)
CN1CC[C@@H](c2c(O)cc(O)c3c(=O)cc(-c4ccccc4Cl)oc23)[C@@H](O)C1	0.217 µM (active)
COc1ccc(C(=O)Nc2ncc(-c3ccc(C(=O)O)cc3)s2)cc1	10.7 µM (active)
C=C1C(=O)OC2C(OC(=O)C=C(C)C)C(C)=C3C(=O)C=C(C)C3C(O)C12 (stereo not drawn)	14.8 µM (active)
Cn1cc(C=C2C(=O)Nc3cccnc32)c2ccccc21	24.3 µM (active)
OCc1c[nH]c2ccccc12	31.7 µM (active)
CN(C)CCC(CSc1ccccc1)Nc1ccc(S(=O)(=O)NC(=O)c2ccc(N3CCN(Cc4ccccc4-c4ccc(Cl)cc4)CC3)cc2)cc1[N+](=O)[O-] (stereo not drawn)	16.9 µM (active)
O=C(Nc1cc(C(F)(F)F)cc(C(F)(F)F)c1)c1cnc(Cl)nc1C(F)(F)F	30.1 µM (active)
Cc1cc(Nc2nc(N[C@@H](C)c3ccc(F)cc3)c(C#N)cc2F)n[nH]1	16.9 µM (active)
CC1=C(CO)C(=O)O[C@@H]([C@@H](C)[C@H]2CC[C@H]3[C@@H]4C[C@H]5O[C@]56[C@@H](O)C=CC(=O)[C@]6(C)[C@H]4CC[C@]23C)C1	1.47 µM (active)
Cc1[nH]nc2ccc(-c3cncc(OC[C@@H](N)Cc4ccccc4)c3)cc12	21.7 µM (active)
CCN1CCN(Cc2ccc(NC(=O)c3ccc(C)c(NC(=O)c4cncc(-c5cccs5)c4)c3)cc2C(F)(F)F)CC1	26.9 µM (active)

* * *

Test: BET inhibitor-based combinations targeting novel dependencies in MECOM-rearranged (r) AML: HNT-34 cell line (AID 2202234); further: nearly all actives have a fitted effect of over 35% in size; further: potency means the concentration at half of the fitted maximal effect
Details: HNT-34 AML viability, CellTiter-Glo luminescence, 48 h; series mostly up to 46 µM
Results filed as inconclusive are left out. Active and inactive are the calls of the source. The call rests on the fitted dose curve; in most records, active means well fitted inhibition curve with a large enough effect; inconclusive means small, poorly fitted or top-dose-only effect; inactive means no such curve, though single readings can be large or run the other way.

molecule	Potency
CC[C@@]1([C@@H]2O[C@@H]([C@H]3O[C@@](O)(CO)[C@H](C)C[C@H]3C)C[C@H]2C)CC[C@H]([C@]2(C)CC[C@]3(C[C@H](O)[C@@H](C)[C@@H]([C@@H](C)[C@@H](OC)[C@H](C)C(=O)O)O3)O2)O1	0.0811 µM (active)
CC(C)C[C@H](NC(=O)CNC(=O)c1cc(Cl)ccc1Cl)B(O)O	0.132 µM (active)
COc1cc(-c2nn(C3CCC(N4CCN(C(C)=O)CC4)CC3)c3ncnc(N)c23)ccc1NC(=O)c1cc2ccccc2n1C (centres undefined)	2.09 µM (active)
C[C@](N)(Cc1ccc(O)c(O)c1)C(=O)O	inactive
COc1ccc(-n2cnc3cc(C(=O)N4CCCCC4)ccc32)cc1	inactive
Nc1ccc(/C=C/C(=O)NCc2cc3cc(-c4ccc(C(=O)N5CCC(F)(F)CC5)cc4)cc(-c4ccc(F)cc4)c3o2)cn1	0.742 µM (active)
COc1ccc2cccc(CCNC(C)=O)c2c1	inactive
NCCc1cnc[nH]1	inactive
COc1c(OCCCN2CCOCC2)ccc2c3n(c(=NC(=O)c4cnc(N)nc4)nc12)CCN3	0.959 µM (active)
COc1ccc(C2CNC(=O)C2)cc1OC1CCCC1 (centres undefined)	inactive
Cc1nc(N)sc1-c1ccnc(Nc2ccc(N3CCOCC3)cc2)n1	2.35 µM (active)
CS(=O)(=O)c1ccc(C2=C(c3ccccc3)C(=O)OC2)cc1	inactive
C=CC(=O)Nc1cccc(Nc2nc(Nc3ccc(OCCOC)cc3)ncc2F)c1	1.86 µM (active)
COC(=O)Nc1nc2ccc(C(=O)c3ccc(F)cc3)cc2[nH]1	0.417 µM (active)
CN(C)CCN1C(=O)c2cccc3cc(N)cc(c23)C1=O	10.5 µM (active)
COc1cc(OC2CCN(C)CC2)ccc1Nc1ncc2c(n1)n(C1CCCC1)c(=O)n2C	13.2 µM (active)
Cc1ccc(NC(=O)c2ccc(CN3CCN(C)CC3)cc2)cc1Nc1nc(-c2cccnc2)cs1	5.25 µM (active)
O=C(O)C(=O)Nc1cccc(-c2nn[nH]n2)c1	inactive
Cc1ccc(NC(=O)Nc2cc(C(F)(F)F)ccc2F)cc1Nc1ccc2c(c1)NC(=O)/C2=C\c1ccc[nH]1	26.3 µM (active)
O=C(/C=C\n1cnc(-c2cc(C(F)(F)F)cc(C(F)(F)F)c2)n1)NNc1cnccn1	0.934 µM (active)
C=C1C(=O)[C@@]23C(CC[C@@H]1[C@H]2O)[C@@]12CO[C@]3(O)[C@@H](O)[C@@H]1C(C)(C)CC[C@@H]2O (some centres undefined)	2.35 µM (active)
Cc1cc2cc3c(C)cc(=O)oc3c(C)c2o1	inactive
CCNC(=O)CCC/C=C\C[C@@H]1[C@@H](/C=C/C(O)CCc2ccccc2)[C@@H](O)C[C@@H]1O (some centres undefined)	inactive
CN(CC(=O)N(Cc1ccc(C2CCCCC2)cc1)c1ccc(C(=O)O)c(O)c1)S(=O)(=O)c1c(F)c(F)c(F)c(F)c1F	6.61 µM (active)
CCOC(=O)C(C)Oc1cccc2c(=O)n(CC(=O)Nc3ccc4c(c3)OCCO4)ccc12 (centres undefined)	inactive
CC(C)(Sc1ccc(CCN(CCCCC2CCCCC2)C(=O)NC2CCCCC2)cc1)C(=O)O	inactive
CO[C@@H]1[C@@H](OC(N)=O)[C@@H](O)[C@H](Oc2ccc3c(O)c(NC(=O)c4ccc(O)c(CC=C(C)C)c4)c(=O)oc3c2C)OC1(C)C	inactive
c1cc(-c2cnn3cc(-c4ccc(N5CCNCC5)cc4)cnc23)c2cccnc2c1	11.8 µM (active)
COc1cc2c(cc1OC)CN(CCc1ccc(NC(=O)c3cccc4c(=O)c5cccc(OC)c5[nH]c34)cc1)CC2	inactive
CCCOc1ccc2nc(NC(=O)OC)[nH]c2c1	0.235 µM (active)
O=c1c(-c2ccc(O)cc2)coc2cc(O)ccc12	16.6 µM (active)
CC1(C)CC(=O)c2c(C(F)(F)F)nn(-c3ccc(C(N)=O)c(NC4CCC(O)CC4)c3)c2C1 (centres undefined)	0.0934 µM (active)
COc1ccc(Nc2nccc(NCCO)n2)cc1	inactive
N#Cc1cc(NC(=O)Nc2nnc(-c3ccncc3)s2)ccc1-c1cn[nH]c1	inactive
Nc1[nH]c(=O)ncc1F	inactive
CS(=O)(=O)c1ccc(Oc2cc(F)cc(C#N)c2)c2c1[C@H](O)C(F)(F)C2	inactive
CC(C)c1cc(C(=O)N2Cc3ccc(CN4CCN(C)CC4)cc3C2)c(O)cc1O	0.209 µM (active)
NS(=O)(=O)NCCNc1nonc1C(=Nc1ccc(F)c(Br)c1)NO	inactive
Cc1cc(C)c(/C=C2\C(=O)Nc3ccccc32)[nH]1	0.296 µM (active)

* * *

Molecular target: Cellular tumor antigen p53 (Homo sapiens) (UniProt P04637)
Sequence (P04637 whole entry, looked up): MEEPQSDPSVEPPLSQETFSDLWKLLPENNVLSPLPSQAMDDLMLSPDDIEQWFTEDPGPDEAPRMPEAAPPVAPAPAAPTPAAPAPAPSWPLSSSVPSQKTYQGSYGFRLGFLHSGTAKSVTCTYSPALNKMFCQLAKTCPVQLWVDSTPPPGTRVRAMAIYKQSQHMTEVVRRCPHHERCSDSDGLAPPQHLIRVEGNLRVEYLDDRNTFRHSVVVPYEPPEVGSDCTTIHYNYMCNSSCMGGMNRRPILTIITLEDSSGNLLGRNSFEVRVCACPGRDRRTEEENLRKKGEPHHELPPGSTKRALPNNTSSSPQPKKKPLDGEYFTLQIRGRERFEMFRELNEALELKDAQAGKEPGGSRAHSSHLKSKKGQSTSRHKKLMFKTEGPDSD
Assay: Primary qHTS for small molecule compounds that upregulate eGFP-tagged delta133p53alpha (in N-terminal) cells. (AID 2060322); further: nearly all actives have a fitted effect of over 75% in size;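 on activation: cells pre-induced with doxycycline then dosed without doxycycline; 0% = DMSO vehicle and 100% = reference activator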
Conditions: NCI-H358 eGFP-delta133p53alpha fluorescence, 24 h; hits give high values
Records with an inconclusive call do not appear.
measure_name: activation (%)

compound	result_value
COc1ccc(CN2CCN(C(=O)CCNC(=O)c3ccc(C(C)(C)C)cc3)CC2)cc1	-7.16
O=C(Nc1ccccc1Br)NC1CCN(c2ccc(C(F)(F)F)cn2)C1 (centres undefined)	0.477
NC[C@@H]1O[C@@H](O[C@@H]2[C@@H](O[C@@H]3O[C@H](CO)[C@@H](O)[C@H]3O)[C@H](O)[C@@H](N)C[C@H]2N)[C@@H](N)[C@H](O)[C@H]1O	-0.893
CC1=CC2=C(C)C(=O)C(C)(O)C(O)C2CO1 (centres undefined)	-5.34
COc1ccc(-c2ccc(N)[n+](CCCC(=O)O)n2)cc1	-20
OCC(CO)N[C@H]1C[C@](O)(CO)[C@@H](O)[C@H](O)[C@H]1O	-11.7
CC(C)CCC[C@@H](C)[C@H]1CC[C@H]2[C@@H]3CC(=O)[C@H]4C[C@@H](O)CC[C@]4(C)[C@H]3CC[C@]12C	-7
COc1cc(/C=C/CO)ccc1O[C@@H]1O[C@H](CO)[C@@H](O)[C@H](O)[C@H]1O	-6.25
OC1(c2ccc(Cl)cc2)CCNCC1	-8.47
CCOc1cc(N2CCC(O)CC2)ccc1Nc1ncc2c(n1)N(C)c1ccccc1C(=O)N2C	72.4
CCCCCCCCCCCCCCCCCCN(C)C	-22.6
Cc1c(C)n(CCN(C)C)c2ccc(C(=O)OCCN(C)C)cc12	-11.9
CC1CCN(C(=O)CC#N)CC1N(C)c1ncnc2[nH]ccc12 (centres undefined)	1.79
c1ccc2c(-c3cnn4cc(-c5ccc(N6CCNCC6)cc5)cnc34)ccnc2c1	75.9
CN(C)c1ccc(NC(=O)NS(=O)(=O)c2ccc(Cl)cc2)cc1	-1.67
C=C1CC2C3(C)C(O)CC(=O)C(C)(C)C3C(O)C(OC(C)=O)C2(C)C2C(=O)OC(C)(C(=O)OC)C(=O)C12C (centres undefined)	27.5
C=C1[C@H](n2cnc3c(=O)[nH]c(N)nc32)C[C@H](O)[C@H]1CO	-20.5
CC1(C)S[C@@H]2[C@H](NC(=O)C(c3ccccc3)S(=O)(=O)O)C(=O)N2[C@H]1C(=O)O (some centres undefined)	-13
Cc1c(O)cccc1C(=O)N[C@@H](CSc1ccccc1)[C@H](O)CN1C[C@H]2CCCC[C@H]2C[C@H]1C(=O)NC(C)(C)C	-0.838
